# SYSTEM_TESTED: T1, human ST2L (human, UniProt Q01638 19-328, limits assumed)
# T1 construct: also called IL-1R4; IL-33Ra
# T1 sequence (looked up): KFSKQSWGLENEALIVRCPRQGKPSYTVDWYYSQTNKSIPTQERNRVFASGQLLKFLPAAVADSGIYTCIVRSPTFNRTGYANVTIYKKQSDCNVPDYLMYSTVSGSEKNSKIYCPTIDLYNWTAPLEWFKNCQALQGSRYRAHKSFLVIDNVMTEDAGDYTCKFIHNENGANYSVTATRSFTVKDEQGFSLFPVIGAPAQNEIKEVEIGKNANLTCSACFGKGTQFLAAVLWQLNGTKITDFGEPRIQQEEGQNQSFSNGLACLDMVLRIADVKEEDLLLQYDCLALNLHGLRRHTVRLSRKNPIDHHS
# ASSAY_OVERVIEW: affinity table; method not stated
Below, each of the binders is paired with its reported koff value.
Note: unit s⁻¹ is implicit; provide only the numeric part.

Please review the following examples before continuing.
BINDER: STLM216 (antibody, from another filing, V domains shown) VH: EVQLLESGGGLVQPGGSLRLSCAASGFTFSSYDMFWVRQAPGKGLEWVSDIKGEGGATNYADSVKGRFTISRDNSKNTLYLQMNSLRAEDTAVYYCARDPWSTEGSFFVLDYWGQGTLVTVSS VL: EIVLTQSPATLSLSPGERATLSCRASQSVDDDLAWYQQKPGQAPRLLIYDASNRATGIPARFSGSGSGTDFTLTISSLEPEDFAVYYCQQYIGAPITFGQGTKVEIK
koff [s⁻¹]: 0.000158
//
BINDER: STLM220 (antibody, from another filing, V domains shown) VH: EVQLLESGGGLVQPGGSLRLSCAASGFTFSFYDMFWVRQAPGKGLEWVSDIRGEGGGTAYADSVKGRFTISRDNSKNTLYLQMNSLRAEDTAVYYCARDPWSTEGSFFVLDYWGQGTLVTVSS VL: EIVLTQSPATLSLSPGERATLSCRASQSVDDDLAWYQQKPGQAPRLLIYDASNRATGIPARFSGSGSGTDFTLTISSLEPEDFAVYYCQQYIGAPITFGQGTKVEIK
koff [s⁻¹]: 9.53e-05
//
BINDER: STLM215 (antibody, from another filing, V domains shown) VH: EVQLLESGGGLVQPGGSLRLSCAASGFTFSSYDMFWVRQAPGKGLEWVSAIAGEGGRTYYADSVKGRFTISRDNSKNTLYLQMNSLRAEDTAVYYCARDPWSTEGSFFVLDYWGQGTLVTVSS VL: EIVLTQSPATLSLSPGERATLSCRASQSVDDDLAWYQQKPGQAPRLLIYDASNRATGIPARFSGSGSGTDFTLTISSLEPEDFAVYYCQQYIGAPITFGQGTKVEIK
koff [s⁻¹]: 0.000172
//
BINDER: STLM108 (antibody, from another filing, V domains shown) VH: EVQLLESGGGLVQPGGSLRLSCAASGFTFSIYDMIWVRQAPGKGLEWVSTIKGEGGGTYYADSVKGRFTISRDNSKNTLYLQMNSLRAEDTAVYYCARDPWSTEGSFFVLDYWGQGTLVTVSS VL: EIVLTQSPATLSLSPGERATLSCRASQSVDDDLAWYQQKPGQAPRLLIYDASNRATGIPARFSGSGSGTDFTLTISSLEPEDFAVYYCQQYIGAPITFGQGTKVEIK
koff [s⁻¹]: 0.000222
//
BINDER: STLM107 (antibody, from another filing, V domains shown) VH: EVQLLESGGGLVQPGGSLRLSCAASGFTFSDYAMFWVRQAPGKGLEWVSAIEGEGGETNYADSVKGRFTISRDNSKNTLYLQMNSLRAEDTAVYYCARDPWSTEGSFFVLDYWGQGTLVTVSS VL: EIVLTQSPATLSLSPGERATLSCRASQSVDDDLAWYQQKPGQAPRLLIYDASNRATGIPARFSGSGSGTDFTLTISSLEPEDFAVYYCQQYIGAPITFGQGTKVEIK
koff [s⁻¹]: 0.000341

Incoming: Provide one value: measured koff of STLM226 (antibody, from another filing, V domains shown) VH: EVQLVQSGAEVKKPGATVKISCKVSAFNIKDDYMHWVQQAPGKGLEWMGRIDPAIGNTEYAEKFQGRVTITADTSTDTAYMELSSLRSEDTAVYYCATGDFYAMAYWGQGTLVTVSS VL: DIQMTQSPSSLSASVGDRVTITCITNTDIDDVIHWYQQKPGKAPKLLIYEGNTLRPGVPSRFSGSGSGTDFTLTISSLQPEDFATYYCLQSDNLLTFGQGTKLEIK
Outgoing: 0.00193

Incoming: Provide one value: measured koff of STLM228 (antibody, from another filing, V domains shown) VH: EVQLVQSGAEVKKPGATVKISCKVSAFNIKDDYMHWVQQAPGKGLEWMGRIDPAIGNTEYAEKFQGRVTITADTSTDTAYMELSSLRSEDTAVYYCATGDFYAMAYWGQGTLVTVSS VL: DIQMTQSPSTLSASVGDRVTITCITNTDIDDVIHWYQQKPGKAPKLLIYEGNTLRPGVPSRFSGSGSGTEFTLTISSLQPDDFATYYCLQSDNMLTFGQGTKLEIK
Outgoing: 0.00104

Incoming: Provide one value: measured koff of STLM221 (antibody, from another filing, V domains shown) VH: EVQLLESGGGLVQPGGSLRLSCAASGFTFSIYDMFWVRQAPGKGLEWVSYIRGEGGDTNYADSVKGRFTISRDNSKNTLYLQMNSLRAEDTAVYYCARDPWSTEGSFFVLDYWGQGTLVTVSS VL: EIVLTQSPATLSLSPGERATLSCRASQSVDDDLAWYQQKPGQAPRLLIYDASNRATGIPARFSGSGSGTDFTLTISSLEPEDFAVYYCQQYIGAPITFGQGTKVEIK
Outgoing: 9.61e-05

Incoming: Provide one value: measured koff of STLM232 (antibody, from another filing, V domains shown) VH: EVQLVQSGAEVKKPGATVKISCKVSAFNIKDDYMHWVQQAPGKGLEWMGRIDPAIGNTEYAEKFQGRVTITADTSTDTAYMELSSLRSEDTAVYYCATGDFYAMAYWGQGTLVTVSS VL: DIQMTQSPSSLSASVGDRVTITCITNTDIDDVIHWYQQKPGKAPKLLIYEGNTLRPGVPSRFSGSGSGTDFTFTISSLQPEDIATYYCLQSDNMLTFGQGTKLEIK
Outgoing: 0.000449
